- Tested on: TAOK3;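 also: KINOMEscan kinase panel screen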
- CONDITIONS USED: concentration: 1 μM,replicates: in singlicate; n = 1
REPORTED PROPERTY: %Inh (%)
Provide the reading as a plain figure in %.

Briefly, %Inh measured for O=C(NCCCN1CCOC1=O)c1cnc(NCc2cc(Cl)ccc2Cl)nc1NC1CCCC1 : 0

The compound identified as C[C@H]1Oc2cc(cnc2N)-c2c(nn(C)c2C#N)CN(C)C(=O)c2ccc(F)cc21 registered its %Inh at 0

Please fill in: %Inh reported for Cc1n[nH]c2ccc(-c3cc(OC[C@@H](N)Cc4ccccc4)cnc3-c3ccoc3)cc12.O=C(O)C(F)(F)F.O=C(O)C(F)(F)F [GSK507358] = 74

According to the records, this compound Cl.Cl.NC[C@H](Cc1ccc(C(F)(F)F)cc1)NC(=O)c1cc(Br)c(-c2ccnc3[nH]ccc23)s1 [GSK1487252] displays %Inh of 0

Per the records, this compound ( CCN(CC)CCCCNc1ncc2cc(-c3c(Cl)cccc3Cl)c(NC(=O)NC(C)(C)C)nc2n1 ) has %Inh equal to 99.5
